Data credit: patent US12492196B2

experiment: Log P by HPLC on reversed phase columns (EEC directive 79/831 Annex V.A8); format: physicochemical; conditions: reversed phase HPLC columns, given in preparation examples; method not marked
This listing pairs compounds with measured chromatographic logP.

Cc1c(C(=O)NC2(C(=O)O)CC2)sc(C#N)c1Br	1.88

q: What value of chromatographic logP has been recorded for this entry: `COC(=O)C1(NC(=S)c2sc(Br)c(Br)c2F)CC1`
a: 3.91

q: Given the entry `Cc1c(C(=O)O)sc(C#N)c1Br` , report its measured chromatographic logP.
a: 2.05

q: What value of chromatographic logP has been recorded for this entry: `O=C(O)C1(NC(=S)c2sc(Br)c(Br)c2F)CC1`
a: 2.95

q: # chromatographic logP lookup, item `COC(=O)C1(NC(=O)c2sc(C#N)c(Br)c2C)CC1`
a: 2.31

q: I am curious: what chromatographic logP value has been reported for `O=C1SC(c2sc(Br)c(Br)c2F)=NC12CC2` ?
a: 5.08

* * *

experiment: Log P by HPLC on reversed phase columns (EEC directive 79/831 Annex V.A8); format: physicochemical; settings: method [a]: LC-UV, acidic range, 0.1% formic acid in water and acetonitrile as eluent
Quick reference: LogP of the listed items.

O=C1SC(c2sc(Br)c(Br)c2I)=NC12CC2 [I.14]	5.61^[a]

q: Reported LogP for Cc1c(C2=NC3(CC3)C(=O)O2)sc(C#N)c1Cl [I.07] : what is it?
a: 3.25^[a]

q: Would you kindly share the measured LogP for CC1(C)N=C(c2sc(Cl)c(Br)c2Br)OC1=O [I.18] ?
a: 4.32^[a]

q: LogP lookup needed for N#Cc1sc(C2=NC3(CC3)C(=O)O2)cc1Br [I.05] , thanks.
a: 2.83^[a]

q: Need LogP, item O=C1SC(c2sc(Br)c(Br)c2Br)=NC12CC2 [I.04]
a: 5.61^[a]

q: Please give the measured LogP for this molecule: Cc1c(C2=NC(C(C)C)C(=O)O2)sc(Br)c1Br (stereo not drawn) [I.10]
a: 5.31^[a]

* * *

test: Log P by HPLC on reversed phase columns (EEC directive 79/831 Annex V.A8); type: physicochemical; conditions: given in preparation examples; method not marked
readoutKind: chromatographic logP
Number only, please.

q: Fill in: chromatographic logP of `Cc1c(C2=NC3(CC3)C(=O)O2)sc(C#N)c1Br` is ___
a: 3.37

* * *

test system: Peronospora parasitica; test: In vivo preventive test on Peronospora parasitica (crucifer downy mildew); settings: Hyaloperonospora parasitica, 120 h; 125 ppm of active ingredient; cabbage; evaluated 5 days after inoculation; read-out: efficacy
Readings of pest or weed control at 125 ppm for the listed compounds

CC1(C)N=C(c2sc(Cl)c(Br)c2Cl)OC1=O	90 to 100%

q: What value of pest or weed control at 125 ppm has been reported for the following compound? `O=C1OC(c2sc(Cl)c(Br)c2Br)=NC12CC2`
a: 90 to 100%

q: // query pest or weed control at 125 ppm value for entry `O=C1OC(c2cc(Br)c(C(F)(F)F)s2)=NC12CC2`
a: 90 to 100%

* * *

system: Peronospora parasitica; experiment: In vivo preventive test on Peronospora parasitica (crucifer downy mildew); details: Hyaloperonospora parasitica, 120 h; 125 ppm of active ingredient; cabbage; evaluated 5 days after inoculation; read-out: efficacy
Below, each of the compounds is paired with its reported pest or weed control at 125 ppm value.

O=C1OC(c2sc(Cl)c(Cl)c2Br)=NC12CCC2	90 to 100%
CC1(C)N=C(c2sc(Br)c(Br)c2F)OC1=O	90 to 100%
O=C1SC(c2sc(Cl)c(Cl)c2Cl)=NC12CC2	80 to 89%
Cc1c(C2=NC(C)(C)C(=O)O2)sc(Cl)c1Cl	80 to 89%
Cc1c(C2=NC3(CC3)C(=O)O2)sc(Cl)c1Br	90 to 100%
O=C1OC(c2sc(Br)c(Br)c2Cl)=NC12CCC2	90 to 100%
O=C1OC(c2sc(Cl)c(Br)c2Cl)=NC12CC2	90 to 100%
Cc1c(C2=NC3(CCC3)C(=O)O2)sc(Cl)c1Cl	90 to 100%

q: Provide value of pest or weed control at 125 ppm for this record tested with Peronospora parasitica: `Cc1c(C2=NC3(CC3)C(=O)O2)sc(Br)c1Cl`
a: 90 to 100%

q: Find pest or weed control at 125 ppm (Peronospora parasitica) for the entry `Cc1c(C2=NC3(CC3)C(=O)O2)sc(C#N)c1Br`
a: 90 to 100%

q: Form field: pest or weed control at 125 ppm recorded for `O=C1OC(c2sc(Br)c(Br)c2F)=NC12CCC2` with Peronospora parasitica (enter value)
a: 90 to 100%

* * *

assay: Log P by HPLC on reversed phase columns (EEC directive 79/831 Annex V.A8); assay type: physicochemical; settings: reversed phase HPLC columns, method [a]: LC-UV, acidic range, 0.1% formic acid in water and acetonitrile as eluent
readoutKind: chromatographic logP
Lab note: record just the number, no unit beside it.

Illustrative cases are given below, each with its answer.
O=C1OC(c2sc(Br)c(Br)c2Cl)=NC12CCC2	4.51
Cc1c(C2=NC(C)(C)C(=O)O2)sc(Cl)c1Cl	4.51
Cc1c(C2=NC3(CC3)C(=O)S2)sc(Br)c1Br	5.65
O=C1OC(c2sc(Cl)c(Br)c2Br)=NC12CC2	4.12
CC1(C)N=C(c2sc(Cl)c(Cl)c2Br)OC1=O	4.33
CC1(C)N=C(c2sc(Br)c(Br)c2F)OC1=O	3.77

q: Request the reported chromatographic logP associated with `O=C1OC(c2sc(Br)c(Br)c2F)=NC12CCC2`
a: 4.02

q: What measured chromatographic logP goes with `Cc1c(C2=NC3(CCC3)C(=O)O2)sc(Cl)c1Cl` ?
a: 4.75

* * *

// pest or weed control at 125 ppm lookup, one value per entry
test system: Uromyces appendiculatus; assay: In vivo preventive test on Uromyces appendiculatus (bean rust); conditions: Uromyces appendiculatus, 240 h; 125 ppm of active ingredient; bean; evaluated 10 days after inoculation; read-out: efficacy

Past entries and their recorded results:
CC1(C)N=C(c2sc(Br)c(Br)c2F)OC1=O	90 to 100%
O=C1OC(c2sc(Br)c(Br)c2Cl)=NC12CCC2	90 to 100%
O=C1OC(c2sc(Cl)c(Br)c2Cl)=NC12CCC2	90 to 100%
Cc1c(C2=NC3(CC3)C(=O)O2)sc(C#N)c1Br	70 to 79%
O=C1OC(c2sc(Cl)c(Br)c2Cl)=NC12CC2	90 to 100%

Okay, now this molecule:
q: Param item = O=C1OC(c2cc(Br)c(Br)s2)=NC12CC2 [CMP1, reference compound] ; retrieve measured pest or weed control at 125 ppm.
a: 42%

* * *

In this section, each of the molecules is paired with its reported chromatographic logP.
assay: Log P by HPLC on reversed phase columns (EEC directive 79/831 Annex V.A8); format: physicochemical; conditions: reversed phase HPLC columns, method [a]: LC-UV, acidic range, 0.1% formic acid in water and acetonitrile as eluent
Answer with a bare number; do not write a unit.

O=C1SC(c2sc(Cl)c(Cl)c2Cl)=NC12CC2 [I.01]	5.61
O=C1OC(c2sc(Cl)c(Cl)c2Br)=NC12CCC2 [I.22]	4.55
Cc1c(C2=NC3(CC3)C(=O)O2)sc(Cl)c1Br [I.11]	4.39

q: Which chromatographic logP value is on record for CC1(C)N=C(c2sc(Cl)c(Br)c2Cl)OC1=O [I.21] ?
a: 4.26

q: Which chromatographic logP value belongs to O=C1OC(c2sc(Cl)c(Br)c2Cl)=NC12CC2 [I.09] ?
a: 4.01

q: Look at this molecule and give its reported chromatographic logP. O=C1SC(c2sc(Br)c(Br)c2F)=NC12CC2 [I.03]
a: 5.08

q: Would you kindly share the measured chromatographic logP for Cc1c(C2=NC3(CC3)C(=O)O2)sc(Br)c1Cl [I.12] ?
a: 4.32

q: Can you share its chromatographic logP? I mean this molecule: O=C1OC(c2cc(Br)c(C(F)(F)F)s2)=NC12CC2 [I.26]
a: 3.98

q: I have this molecule here, O=C1OC(c2sc(Cl)c(Br)c2Cl)=NC12CCC2 [I.25] , and I need its recorded chromatographic logP.
a: 4.47
